# targetDesc: T1, KRAS G13D (G13D-RT6) peptide on HLA-DQA1*05:01 / HLA-DQB1*03:01 (human)
# T1 chain: YKLVVVGAGDVGKSAL
# experimentalProtocol: NFAT-luciferase; Jurkat-NFAT-Luc with the TCR and Lovo-DPA0301:DPB0501 cells loaded with G13D-RT6; against wild-type B8.2.4 TCR; full-length, on cells
# conditionParameters: chains Valpha:Vbeta
Exercise: for every item that follows, state its recorded TCR Mut RLU/WT RLU.
Numbers only.

Parameter requested: TCR Mut RLU/WT RLU. Apply to each item below.
1. B8.2.4 TCR mutant β98P-F (protein) chain 1: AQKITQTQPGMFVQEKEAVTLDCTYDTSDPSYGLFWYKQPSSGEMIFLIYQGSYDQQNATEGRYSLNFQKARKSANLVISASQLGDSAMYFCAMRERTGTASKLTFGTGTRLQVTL chain 2: DVKVTQSSRYLVKRTGEKVFLECVQDMDHENMFWYRQDPGLGLRLIYFSYDVKMKEKGDIPEGYSVSREKKERFSLILESASTNQTSMYLCASSQTVFPQHFGDGTRLSIL
2. B8.2.4 TCR mutant β98P-L (protein) chain 1: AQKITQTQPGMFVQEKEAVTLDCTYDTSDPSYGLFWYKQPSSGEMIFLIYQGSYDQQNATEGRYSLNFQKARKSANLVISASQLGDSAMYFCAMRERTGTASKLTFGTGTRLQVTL chain 2: DVKVTQSSRYLVKRTGEKVFLECVQDMDHENMFWYRQDPGLGLRLIYFSYDVKMKEKGDIPEGYSVSREKKERFSLILESASTNQTSMYLCASSQTVLPQHFGDGTRLSIL
3. B8.2.4 TCR mutant β98P-R (protein) chain 1: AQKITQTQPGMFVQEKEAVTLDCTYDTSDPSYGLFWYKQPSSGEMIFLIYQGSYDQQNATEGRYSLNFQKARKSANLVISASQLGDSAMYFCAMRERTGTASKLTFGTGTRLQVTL chain 2: DVKVTQSSRYLVKRTGEKVFLECVQDMDHENMFWYRQDPGLGLRLIYFSYDVKMKEKGDIPEGYSVSREKKERFSLILESASTNQTSMYLCASSQTVRPQHFGDGTRLSIL

0.96
0.67
0.73
